B1: Serine/threonine-protein phosphatase 4 catalytic subunit (Homo sapiens), P60510 (parent)
chain: MAEISDLDRQIEQLRRCELIKESEVKALCAKAREILVEESNVQRVDSPVTVCGDIHGQFYDLKELFRVGGDVPETNYLFMGDFVDRGFYSVETFLLLLALKVRYPDRITLIRGNHESRQITQVYGFYDECLRKYGSVTVWRYCTEIFDYLSLSAIIDGKIFCVHGGLSPSIQTLDQIRTIDRKQEVPHDGPMCDLLWSDPEDTTGWGVSPRGAGYLFGSDVVAQFNAANDIDMICRAHQLVMEGYKWHFNETVLTVWSAPNYCYRCGNVAAILELDEHLQKDFIIFEAAPQETRGIPSKKPVADYFL
partner: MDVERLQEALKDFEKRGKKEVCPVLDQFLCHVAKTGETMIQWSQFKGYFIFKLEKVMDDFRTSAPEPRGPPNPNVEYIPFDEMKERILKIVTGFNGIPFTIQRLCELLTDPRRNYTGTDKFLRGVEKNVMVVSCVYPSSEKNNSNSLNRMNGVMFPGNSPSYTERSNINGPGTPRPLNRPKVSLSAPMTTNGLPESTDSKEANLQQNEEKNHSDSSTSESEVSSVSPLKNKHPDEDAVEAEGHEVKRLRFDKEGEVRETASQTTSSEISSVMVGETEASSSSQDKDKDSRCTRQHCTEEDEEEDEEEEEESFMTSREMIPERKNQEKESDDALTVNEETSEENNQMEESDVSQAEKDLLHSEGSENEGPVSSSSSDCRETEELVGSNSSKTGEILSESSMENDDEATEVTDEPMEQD

- Variants of: B1
- Test Context: with pp4r2_human PPP4R2, Q9NY27

{"Mutation Spec": "R107E", "effect of a mutation on the interaction": "disrupting interaction"}
{"Mutation Spec": "N76D", "effect of a mutation on the interaction": "disrupting interaction"}
{"Mutation Spec": "E39K", "effect of a mutation on the interaction": "disrupting interaction"}
